assay: Short term HFD mouse model: plasma and liver exposure; format: in vivo, mice (C57BL/6J); conditions: HFD mice, three oral doses of 20 mg/kg, 4 h after last dose
property: liver/plasma ratio 4 h

entry_smiles=N#Cc1sccc1-c1c(-c2cccc(-c3ccc(C(=O)O)cc3Cl)c2)n(S(=O)(=O)c2ccc(C(F)F)cc2)c2ccc(F)cc12 reported="C (30 to ≤100)"
entry_smiles=Cc1ccc(S(=O)(=O)n2c(-c3cccc(-c4ccc(C(=O)O)cc4Cl)c3)c(-c3ccsc3C#N)c3cc(F)ccc32)cc1 reported="C (30 to ≤100)"
entry_smiles=N#Cc1cccc(C#N)c1-c1c(-c2cccc(-c3ccc(C(=O)O)cc3Cl)c2)n(S(=O)(=O)c2ccc(C(F)F)cc2)c2ccc(F)cc12 reported="C (30 to ≤100)"

###

Molecular target: LXRβ ligand-binding domain (Homo sapiens, UniProt P55055, DUP175-175)
Construct: amino acids 156-461; NP009052; made in house; host or cells: E. coli
Sequence (P55055 with tags, fused parts or gaps DUP175-175 limits assumed): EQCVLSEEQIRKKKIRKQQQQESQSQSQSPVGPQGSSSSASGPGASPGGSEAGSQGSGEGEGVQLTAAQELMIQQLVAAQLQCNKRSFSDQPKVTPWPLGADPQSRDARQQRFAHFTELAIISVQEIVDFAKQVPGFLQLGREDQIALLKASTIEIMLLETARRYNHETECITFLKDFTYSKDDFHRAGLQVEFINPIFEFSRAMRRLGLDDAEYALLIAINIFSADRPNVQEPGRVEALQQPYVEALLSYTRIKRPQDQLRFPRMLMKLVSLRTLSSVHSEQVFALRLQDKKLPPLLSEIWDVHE
Test: TR-FRETβ activity assay (NCoA3 coactivator peptide recruitment)
Format: biochemical
Details: TR-FRET, 1 μM 24(S)-25-epoxycholesterol prestimulation; read-out: FRETβ (EC50 range)
pEC50: −log10 of the molar value.
property: pEC50

compound=O=C(O)c1ccc(-c2cccc(-c3c(-c4ccsc4C(F)(F)F)c4cc(F)ccc4n3S(=O)(=O)c3ccc(C(F)F)cc3)c2)c(Cl)c1 property=pEC50 reported="> 7.00"
compound="N#Cc1sccc1-c1c(-c2cccc(N3CCC(C(=O)O)C3)c2)n(S(=O)(=O)c2ccc(Cl)cc2)c2ccccc12 (stereo not drawn)" property=pEC50 reported="6.00 to 7.00"
compound=CN(CCS(=O)(=O)O)C(=O)c1ccc(-c2cccc(-c3c(-c4c(C#N)cccc4C#N)c4cc(F)ccc4n3S(=O)(=O)c3ccc(C(F)F)cc3)c2)c(Cl)c1 property=pEC50 reported="> 7.00"
compound="Cc1ccc(S(=O)(=O)n2c(-c3cccc([C@@H]4C[C@H]4C(=O)O)c3)c(-c3ccsc3C#N)c3ncccc32)cc1 (relative stereo)" property=pEC50 reported="5.00 to 6.00"
compound=O=C(O)c1ccc(-c2cccc(-c3c(-c4ccccc4C4COC4)c4cc(F)ccc4n3S(=O)(=O)c3ccc(C(F)F)cc3)c2)c(Cl)c1 property=pEC50 reported="> 7.00"
compound="Cc1cccc(C#N)c1-c1c(-c2cccc(-c3ccc(C(=O)O)cc3Cl)c2)n(S(=O)(=O)c2ccc(C(F)F)cc2)c2ccc(F)cc12 [11/36]" property=pEC50 reported="> 7.00"
compound=Cc1ccc(S(=O)(=O)n2c(-c3cccc(-c4cccc(C(=O)O)c4)c3)c(-c3ccsc3C#N)c3ccccc32)cc1 property=pEC50 reported="6.00 to 7.00"
compound=N#Cc1sccc1-c1c(-c2cccc(-c3ccc(C(=O)O)cc3Cl)c2)n(S(=O)(=O)c2ccc(Cl)cc2)c2ccc(F)cc12 property=pEC50 reported="6.00 to 7.00"

Shift focus to the following entry.
I would be grateful if you could share the reported pEC50 for Cc1ccc(S(=O)(=O)n2c(-c3cccc(S(=O)(=O)CC(=O)O)c3)c(-c3ccsc3C#N)c3ccccc32)cc1 . 5.00 to 6.00
